- MEASURED_ON: GLP-1R (Homo sapiens)
- Sequence (P43220 24-463): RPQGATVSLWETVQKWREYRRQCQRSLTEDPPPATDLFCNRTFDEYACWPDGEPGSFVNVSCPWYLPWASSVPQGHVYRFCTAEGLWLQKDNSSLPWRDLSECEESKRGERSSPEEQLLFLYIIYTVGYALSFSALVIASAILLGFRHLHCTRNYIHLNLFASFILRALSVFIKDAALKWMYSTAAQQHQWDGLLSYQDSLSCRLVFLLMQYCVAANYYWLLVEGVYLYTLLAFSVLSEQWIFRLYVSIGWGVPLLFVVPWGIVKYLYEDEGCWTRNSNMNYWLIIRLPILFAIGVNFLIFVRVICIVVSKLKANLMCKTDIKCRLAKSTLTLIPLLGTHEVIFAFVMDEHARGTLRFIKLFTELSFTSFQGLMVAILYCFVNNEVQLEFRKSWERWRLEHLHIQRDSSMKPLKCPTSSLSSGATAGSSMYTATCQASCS
- TEST_DESCRIPTION: GLP-1R activation: cAMP increase in CHO cells stably expressing GLP-1R
- Format: cell-based
- CONDITIONS: cAMP increase, CHO cells stably expressing GLP-1R, 10 point dose response, 30 minutes incubation; read-out: EC50
MEASUREMENT_NAME: EC50
Please don't drop the unit; write it after the number.

compound=CC1(Cn2c(Cc3ccc(-c4cccc(OCc5ccc(C#N)cc5F)n4)cc3F)nc3ccc(C(=O)O)cc32)CC1 value_reported="1.75 nM"

Now look at this one.
Problem: Request the reported EC50 associated with `N#Cc1ccc(COc2nccc(-c3cc(F)c(Cc4nc5c(F)cc(C(=O)O)cc5n4CC45CC(CO4)C5)cc3F)n2)c(F)c1`
Result: 0.69 nM
